The entries below are paired with their reported CC50 at 24 h.
assay_text: in vitro
test_parameters: rat, gh3-tre-luc cells, AC50 (uM) modified / 1000

* CCCCOC(=O)CC#N [Butyl cyanoacetate] | > 100 µM
* N#CCC(=O)O | > 90 µM
* CC(CCCCN)C(C)(C)N (stereo not shown) | > 200 µM

Query block: Requested read-out: CC50 at 24 h. Entry: `OC(CCCN1CCCCC1)(c1ccccc1)c1ccccc1`
Result block: > 50 µM

Query block: Requested read-out: CC50 at 24 h. Entry: `CCC(CC)Nc1ccc(C)c(C)c1`
Result block: > 90 µM

Query block: Requested read-out: CC50 at 24 h. Entry: `NCCc1c[nH]cn1`
Result block: > 50 µM

Query block: Requested read-out: CC50 at 24 h. Entry: `C=C[C@H]1C[N@@]2CC[C@H]1C[C@@H]2[C@@H](O)c1ccnc2ccc(OC)cc12`
Result block: 85.2 µM

Query block: Requested read-out: CC50 at 24 h. Entry: FC1(F)C(F)(F)C(F)(F)C2(F)C(F)(F)C(F)(F)C(F)(F)C(F)(F)C2(F)C1(F)F (stereo not shown)
Result block: > 50 µM

Query block: Requested read-out: CC50 at 24 h. Entry: `O=C(O)CCCCCCCC(=O)O`
Result block: > 90 µM

Query block: Requested read-out: CC50 at 24 h. Entry: `Cn1c(N)c(N=O)c(=O)n(C)c1=O`
Result block: > 90 µM

----------
The entries below are paired with their reported CC50 at 24 h.
assay_text: in vitro
test_parameters: rat, gh3-tre-luc cells, AC50 (uM) modified / 1000
Structures can show the parent of a compound that is named as a salt.

# annotated cases, reported CC50 at 24 h shown
* CC1(C)SC(C)(C)SC(C)(C)S1 | > 90 µM
* COc1ccc2[nH]cc(CCNC(C)=O)c2c1 | > 90 µM
* C(=C\c1ccncc1)/c1ccccc1 | > 50 µM
* CC1(C)O[C@H]2CC(=O)OC[C@]23[C@H]2CC[C@@]4(C)[C@H](c5ccoc5)OC(=O)[C@H]5O[C@]54[C@]2(C)C(=O)C[C@@H]13 | > 50 µM
* C1=Cc2cccc3cccc1c23 | > 90 µM
* OCC1(CO)COCOC1 | > 90 µM
* CCC=O | > 90 µM
* CCCCCC(C)N (stereo not shown) [2-Aminoheptane sulfate] | > 50 µM

Query block: Requested read-out: CC50 at 24 h. Entry: `CCCCN(CCCC)CCCOC(=O)c1ccc(N)cc1`
Result block: > 20 µM

Query block: Requested read-out: CC50 at 24 h. Entry: `CCCCN(CCCC)C(=O)N(CCCC)CCCC`
Result block: > 90 µM

----------
assay_text: in vitro
test_parameters: rat, gh3-tre-luc cells, AC50 (uM) modified / 1000, Tox21_110001=Tox21_201726; viability, 1 nM T3 present, 24 h
endpoint_label: CC50 at 24 h

Query block: Requested read-out: CC50 at 24 h. Entry: `ClCCBr`
Result block: > 90 µM

----------
assay_text: in vitro
test_parameters: rat, gh3-tre-luc cells, AC50 (uM) modified / 1000, Tox21_110001=Tox21_200153; viability, 1 nM T3 present, 24 h
endpoint_label: CC50 at 24 h

Query block: Requested read-out: CC50 at 24 h. Entry: ClC(Br)Br [Chlorodibromomethane]
Result block: > 90 µM

----------
Tested on: GH3-TRE-Luc cell line
test_parameters: read-out: AC50 (uM) modified / 1000; Tox21_110001=Tox21_111978; viability, 1 nM T3 present, 24 h
endpoint_label: CC50
Write the figure, then the unit, nothing else.

Query block: Requested read-out: CC50. Entry: `CC(=O)[C@]1(O)Cc2c(O)c3c(c(O)c2[C@@H](O[C@H]2C[C@H](N)[C@H](O)[C@H](C)O2)C1)C(=O)c1c(O)cccc1C3=O`
Result block: 0.212 µM

----------
assay_text: in vitro
test_parameters: rat, gh3-tre-luc cells, AC50 (uM) modified / 1000, Tox21_110001=Tox21_112402; viability, 1 nM T3 present, 24 h
endpoint_label: CC50 at 24 h

Query block: Requested read-out: CC50 at 24 h. Entry: `CC(=O)OO`
Result block: > 50 µM

----------
assay_text: in vitro
test_parameters: rat, gh3-tre-luc cells, AC50 (uM) modified / 1000, Tox21_110001=Tox21_300990; viability, 1 nM T3 present, 24 h
endpoint_label: CC50 at 24 h (µM)
The response must be a number in µM with no trailing unit.

Query block: Requested read-out: CC50 at 24 h. Entry: `CN1CSC(=S)N(C)C1`
Result block: 34.4

----------
assay_text: in vitro
test_parameters: rat, gh3-tre-luc cells, AC50 (uM) modified / 1000
Structures can show the parent of a compound that is named as a salt.
endpoint_label: CC50 at 24 h

• O=C1CCN(c2ccccc2)N1 [3-Pyrazolidinone,1-phenyl-] = > 90 µM
• NNC(N)=S [Thiosemicarbazide] = > 100 µM
• C=C(C)C1CCC(C)(O)CC1 (stereo not drawn) [beta-Terpineol] = > 90 µM
• CC(C)NCC(O)COc1ccc(COCCOC(C)C)cc1 (centres unmarked) [Bisoprolol fumarate] = > 50 µM
• C[C@@H]1[C@H](O)[C@@H](C)/C=C/C=C/CC/C=C/C=C/C=C/C=C/[C@H](O[C@@H]2O[C@H](C)[C@@H](O)[C@H](N)[C@@H]2O)C[C@@H]2O[C@](O)(C[C@@H](O)[C@H](O)CC[C@@H](O)C[C@@H](O)C[C@@H](O)CC(=O)O[C@H]1C)C[C@H](O)[C@H]2C(=O)O [Nystatin] = > 50 µM
• COC(=O)c1ccc(C(=O)OC)cc1 [Dimethyl terephthalate] = > 90 µM
• CC(CN(C)C)C(C)(O)Cc1ccc(Cl)cc1 (centres unmarked) [Clobutinol hydrochloride] = > 50 µM
• FC(F)OC(Cl)C(F)(F)F (centres unmarked) [Isoflurane] = > 90 µM

Query block: Requested read-out: CC50 at 24 h. Entry: CCCC(=O)Nc1c(I)cc(I)c(CC(CC)C(=O)O)c1I (centres unmarked) [Sodium tyropanoate]
Result block: 26.5 µM

----------
assay_text: in vitro
test_parameters: rat, gh3-tre-luc cells, AC50 (uM) modified / 1000
endpoint_label: CC50 at 24 h

# annotated cases, reported CC50 at 24 h shown
• O=C1CCCCCCCCCCC1 = > 90 µM
• CC(C)(O)c1coc(S(=O)(=O)NC(=O)Nc2c3c(cc4c2CCC4)CCC3)c1 = > 90 µM
• O=S1(=O)c2cccc3cccc(c23)N1CCCN1CCN(c2ccc(F)cc2)CC1 = > 50 µM
• COC(=O)c1ccccc1 [Methyl benzoate] = > 90 µM
• CC(=O)c1ccc([N+](=O)[O-])cc1 = > 90 µM
• CC(C)=CCC/C(C)=C/CC/C(C)=C/CO = 68.1 µM
• C#Cc1cccc(Nc2ncnc3cc(OCCOC)c(OCCOC)cc23)c1 = > 50 µM
• O=[N+]([O-])c1cccc(CCl)c1 [3-Nitrobenzyl chloride] = > 90 µM
• CCCCCCCCCCC=CC#N = > 90 µM

API: the following record is the query input.
Query block: Requested read-out: CC50 at 24 h. Entry: `C/C(=C\c1csc(C)n1)[C@@H]1C[C@@H]2O[C@]2(C)CCC[C@H](C)[C@H](O)[C@@H](C)C(=O)C(C)(C)[C@@H](O)CC(=O)O1`
Result block: 0.00955 µM

----------
System: GH3-TRE-Luc cell line
test_parameters: read-out: AC50 (uM) modified / 1000; Tox21_110001=Tox21_301117; viability, 1 nM T3 present, 24 h
endpoint_label: CC50 (µM)
The response must be a number in µM with no trailing unit.

Query block: Query the reported CC50 for GH3-TRE-Luc cell line; item: CCCCNC(=O)OCC#CI [3-Iodo-2-propynyl-N-butylcarbamate]
Result block: 4.22

----------
assay_text: in vitro
test_parameters: rat, gh3-tre-luc cells, AC50 (uM) modified / 1000, Tox21_110001=Tox21_112859; viability, 1 nM T3 present, 24 h
endpoint_label: CC50 at 24 h (µM)
The response must be a number in µM with no trailing unit.

Query block: Requested read-out: CC50 at 24 h. Entry: CC(CC(C#N)(c1ccccc1)c1ccccc1)N(C)C (stereo not shown) [Premethadone]
Result block: 21.6

----------
assay_text: in vitro
test_parameters: rat, gh3-tre-luc cells, AC50 (uM) modified / 1000
Counter-ions that a name gives are not always drawn.
endpoint_label: CC50 at 24 h

# annotated cases, reported CC50 at 24 h shown
- Cc1nc(C)c(C)nc1C: > 90 µM
- CC(=O)c1ccccc1: > 90 µM
- CC(C)c1cc2c(cc1S(=O)(=O)O)[C@@]1(C)CCC[C@@](C)(C(=O)O)[C@@H]1CC2: > 50 µM
- O=CO [Formic acid, potassium salt]: > 5 µM
- N=C(N)N/N=C/c1c(Cl)cccc1Cl: 20.8 µM
- CC(N)[C@]12C[C@H]3C[C@H](C[C@H](C3)C1)C2 (stereo partly shown) [Rimantadine hydrochloride]: > 50 µM

Query block: Requested read-out: CC50 at 24 h. Entry: C=C(C)C(=O)OCCCCCCCCCCCC [Dodecyl 2-methylacrylate]
Result block: > 90 µM

Query block: Requested read-out: CC50 at 24 h. Entry: CC1=CC[C@@]23C[C@@H]1C(C)(C)[C@@H]2CC[C@H]3C [(-)-alpha-Cedrene]
Result block: > 90 µM

Query block: Requested read-out: CC50 at 24 h. Entry: CS(=O)(=O)c1ccc([C@@H](O)[C@@H](COC(=O)CN)NC(=O)C(Cl)Cl)cc1 [Thiamphenicol glycinate hydrochloride]
Result block: > 50 µM

Query block: Requested read-out: CC50 at 24 h. Entry: `CCCCN(CCO)CCO`
Result block: > 90 µM
